- Tested on: Peritoneal macrophage cell
- TEST: Hepatoprotective activity in ddY mouse peritoneal macrophages assessed as inhibition of LPS-induced nitric oxide production at 100 uM after 20 hrs by Griess method relative to untreated control
- Type: functional
Measured inhibition at 100 µM, listed per entry.
MEASURED METRIC: inhibition at 100 µM (%)

[
  {
    "COMPOUND": "CC(C)CNC(=O)/C=C/CCCCCC/C=C/c1ccc2c(c1)OCO2 [PIPERCHABAMIDE D]",
    "ASSAYED TARGET": "Peritoneal macrophage cell",
    "VALUE": 22
  },
  {
    "COMPOUND": "O=C(/C=C\\C1[C@@H](CCc2ccc3c(c2)OCO3)C(C(=O)N2CCCCC2)[C@H]1c1ccc2c(c1)OCO2)N1CCCCC1 (stereo partly drawn) [PIPERCHABAMIDE G]",
    "ASSAYED TARGET": "Peritoneal macrophage cell",
    "VALUE": 81
  },
  {
    "COMPOUND": "O=C(/C=C/c1ccc(O)c(O)c1)OCCc1ccccc1",
    "ASSAYED TARGET": "Peritoneal macrophage cell",
    "VALUE": 100
  }
]

* * *

- Test system: L929
- TEST: Cytoprotective activity in mouse L929 cells assessed as inhibition of TNF-alpha-induced cytotoxicity at 30 uM by MTT assay relative to untreated control
- Format: functional
# inhibition at 30 µM listing for each entry below
MEASURED METRIC: inhibition at 30 µM (%)

[
  {
    "COMPOUND": "O=C(/C=C\\C1[C@@H](CCc2ccc3c(c2)OCO3)C(C(=O)N2CCCCC2)[C@H]1c1ccc2c(c1)OCO2)N1CCCCC1 (some centres undefined) [PIPERCHABAMIDE G]",
    "MEASURED METRIC": "inhibition at 30 µM",
    "VALUE UNIT": "%",
    "VALUE": 20
  },
  {
    "COMPOUND": "O=C(/C=C/CCCCCC/C=C/c1ccc2c(c1)OCO2)N1CCCCC1 [PIPERCHABAMIDE B]",
    "MEASURED METRIC": "inhibition at 30 µM",
    "VALUE UNIT": "%",
    "VALUE": 19
  },
  {
    "COMPOUND": "CC(C)CNC(=O)/C=C/C=C/CCCC/C=C/c1ccc2c(c1)OCO2 [RETROFRACTAMIDE B]",
    "MEASURED METRIC": "inhibition at 30 µM",
    "VALUE UNIT": "%",
    "VALUE": 1
  },
  {
    "COMPOUND": "O=C(/C=C/C=C/CCCCCC/C=C/c1ccc2c(c1)OCO2)N1CCCCC1 [PIPERCHABAMIDE C]",
    "MEASURED METRIC": "inhibition at 30 µM",
    "VALUE UNIT": "%",
    "VALUE": 25
  },
  {
    "COMPOUND": "COc1cc(/C=C/C(=O)CC(=O)/C=C/c2ccc(O)c(OC)c2)ccc1O",
    "MEASURED METRIC": "inhibition at 30 µM",
    "VALUE UNIT": "%",
    "VALUE": 52
  },
  {
    "COMPOUND": "CCCCCCCCCCCCC/C=C/C=C/C(=O)NCC(C)C",
    "MEASURED METRIC": "inhibition at 30 µM",
    "VALUE UNIT": "%",
    "VALUE": -4
  },
  {
    "COMPOUND": "O=C(/C=C/CCCC/C=C/c1ccc2c(c1)OCO2)N1CCCCC1",
    "MEASURED METRIC": "inhibition at 30 µM",
    "VALUE UNIT": "%",
    "VALUE": -5
  },
  {
    "COMPOUND": "COC(=O)/C=C/C=C/c1ccc2c(c1)OCO2 [METHYL PIPERATE]",
    "MEASURED METRIC": "inhibition at 30 µM",
    "VALUE UNIT": "%",
    "VALUE": 13
  },
  {
    "COMPOUND": "CC(C)CNC(=O)/C=C/C=C/CCCCCC/C=C/c1ccc2c(c1)OCO2",
    "MEASURED METRIC": "inhibition at 30 µM",
    "VALUE UNIT": "%",
    "VALUE": -9
  }
]
